Test system: biotinyl-Phe-oxazolone
Test: self-aminoacylation, catalytic enhancement (BFO) (fold over background); higher = more active; k-Seq, kA / k0A0; sequences stand for … in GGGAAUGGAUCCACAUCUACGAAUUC…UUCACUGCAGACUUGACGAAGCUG
This sample holds only a part of the variants without activity.
MEASURE_NAME: self-aminoacylation
Please reply with the value in numeric form only.

The following sequences have reported results that may help.
AUUCACCUAGGUCAUCGUGUU [Fam2.2 aminoacylation ribozyme variant]: 0.729
AUUCACCUACGUCAUCGUGUG [Fam2.2 aminoacylation ribozyme variant]: 0.74
CUACUACAAACAAUCGGGCUG [Fam1A.1 aminoacylation ribozyme variant]: 0.456
AUUACCCUGGUCAUCCAAUGA [Fam2.1 aminoacylation ribozyme variant]: 1.66
AUUCACCUAGGUCUUAGGGUG [Fam2.2 aminoacylation ribozyme variant]: 32.2
CUACUUCAAACAAUCGGUUGG [Fam1A.1 aminoacylation ribozyme variant]: 3.55
CUACUUCAAACACUCAGUCUG [Fam1A.1 aminoacylation ribozyme variant]: 1.02
AUUUACCUAGGUCCUCGGGUG [Fam2.2 aminoacylation ribozyme variant]: 28.6

Measured self-aminoacylation, CCAUACUUCAAGCAAUCCGUC [Fam1B.1 aminoacylation ribozyme variant] : 0.96

Measured self-aminoacylation, AAGUUUGCUAAUAGUCCGAAG [Fam3.1 aminoacylation ribozyme variant] : 4.75

Measured self-aminoacylation, UCACACUUCAUGCAAUCGGUC [Fam1B.1 aminoacylation ribozyme variant] : 0.632

Measured self-aminoacylation, AUCCACCUAGUUCAUCGGGUG [Fam2.2 aminoacylation ribozyme variant] : 24.1

Measured self-aminoacylation, UUACUUCAAACAACCGGUCUG [Fam1A.1 aminoacylation ribozyme variant] : 1.38

Just for reference, the supplement of paper PMC9233669 is where these values come from.
